B1: Histone-lysine N-methyltransferase SETD2, residues 2382 to 2430; numbered along this chain, Q9BYW2 (parent)
chain: SPPKPKTIVLPPNWKTARDPEGKIYYYHVITRQTQWDPPTWESPGDDAS

# Variants of: B1
# Experiment: abundance fitness (aPCA) (normalised: wild type 0, dead -1); higher = more abundant; growth selection in yeast, the domain comes from the species named
# Assay context: Homo sapiens
Assay endpoint: abundance fitness

INSERT INTO assay_data (variant_description, reported_measurement) VALUES
  ('P38Y', -0.228),
  ('P2T', 0.178),
  ('E42D', -0.504),
  ('A17D', -0.092),
  ('I8E', -0.096),
  ('G22W', -0.224),
  ('R32E', -0.197),
  ('S43F', -0.375),
  ('T16M', 0.218),
  ('I30Y', -0.244),
  ('P5D', 0.133),
  ('Y26I', -0.782),
  ('G22E', -1.1),
  ('V29W', -0.564),
  ('D46S', -0.167),
  ('T16H', 0.095),
  ('E21I', -0.316),
  ('P38N', -0.651),
  ('E42A', -0.148),
  ('V9M', 0.228),
  ('K4M', -0.051),
  ('A17H', -0.728),
  ('H28L', -1.09),
  ('P3C', -0.508),
  ('W41L', 0.078),
  ('T31P', -0.785),
  ('R32D', -0.027),
  ('K6M', 0.018),
  ('T40F', -0.251),
  ('T7Y', -0.155),
  ('I8R', 0.06),
  ('E42T', -0.341),
  ('Y26W', -0.498),
  ('I30G', -0.313),
  ('Q33V', -0.251),
  ('T7G', 0.138),
  ('D37L', -0.159),
  ('R18D', -0.817),
  ('I8A', -0.1),
  ('V9P', -0.538),
  ('Y25S', -0.628),
  ('S43C', -0.471),
  ('R18I', -0.095),
  ('D47A', -0.051),
  ('E42C', -0.303),
  ('W14L', -0.925);

Cited source for all entries: the Human Domainome abundance scans (Beltran et al. 2025)
